# Lookup of reported pKi keyed by entry
biological target: Human recombinant purified glucocorticoid receptor (Homo sapiens, UniProt P04150); experiment: Glucocorticoid receptor competitive binding assay (3H-dexamethasone); conditions: competition with 2 nM 3H-dexamethasone; GR at 1 nM; 4° C. overnight; read-out: Binding Affinity Ki
Sequence (P04150 whole entry): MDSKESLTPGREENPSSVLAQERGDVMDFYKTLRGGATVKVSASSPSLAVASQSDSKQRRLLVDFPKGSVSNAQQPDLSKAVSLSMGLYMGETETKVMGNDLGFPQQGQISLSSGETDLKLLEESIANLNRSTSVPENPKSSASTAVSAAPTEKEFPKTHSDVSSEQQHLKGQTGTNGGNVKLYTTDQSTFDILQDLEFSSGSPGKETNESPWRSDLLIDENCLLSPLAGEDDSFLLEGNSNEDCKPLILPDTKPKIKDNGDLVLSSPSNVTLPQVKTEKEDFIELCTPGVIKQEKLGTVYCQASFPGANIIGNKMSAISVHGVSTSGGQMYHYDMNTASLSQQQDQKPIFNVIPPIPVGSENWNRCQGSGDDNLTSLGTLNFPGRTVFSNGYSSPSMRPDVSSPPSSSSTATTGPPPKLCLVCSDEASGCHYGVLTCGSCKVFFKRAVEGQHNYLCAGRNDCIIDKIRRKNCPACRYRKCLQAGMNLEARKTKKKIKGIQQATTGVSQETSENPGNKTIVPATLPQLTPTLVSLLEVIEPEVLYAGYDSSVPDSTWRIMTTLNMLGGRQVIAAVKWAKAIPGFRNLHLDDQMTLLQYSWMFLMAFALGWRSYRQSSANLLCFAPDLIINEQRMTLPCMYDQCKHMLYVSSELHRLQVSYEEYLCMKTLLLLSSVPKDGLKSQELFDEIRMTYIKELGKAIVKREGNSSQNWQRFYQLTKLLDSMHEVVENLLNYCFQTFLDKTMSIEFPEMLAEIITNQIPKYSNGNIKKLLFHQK
A value of pKi is the negative decimal logarithm of a concentration given in moles per litre.

Example entries and their recorded answers appear below.
O=C(Nc1ccc(-c2ncco2)cc1)C(O)(CC1(c2ccccc2C(F)(F)F)CCC1)C(F)(F)F (stereo not shown); 6.79
CCOC(=O)C(O)c1ccc(NC(=O)C(O)(CC2(c3ccccc3C(F)(F)F)CCC2)C(F)(F)F)cc1 (stereo not shown); 6.26
O=C(Nc1cccc(-c2cnco2)c1)C(O)(CC1(c2ccccc2C(F)(F)F)CCC1)C(F)(F)F (stereo not shown); 7.87

Pending compound:
q: Reported pKi, compound Cc1noc(-c2ccc(NC(=O)C(O)(CC3(c4ccccc4C(F)(F)F)CCC3)C(F)(F)F)cc2)n1 (stereo not shown) : ____
a: 7.60
